Item-by-item account of pIC50
Biological target: MCL-1/Bim interaction (recombinant human MCL-1 protein, residues 171-327; biotinylated human Bim peptide, residues 51-76) (Homo sapiens (Human), UniProt Q07820)
Sequence (Q07820 171-327): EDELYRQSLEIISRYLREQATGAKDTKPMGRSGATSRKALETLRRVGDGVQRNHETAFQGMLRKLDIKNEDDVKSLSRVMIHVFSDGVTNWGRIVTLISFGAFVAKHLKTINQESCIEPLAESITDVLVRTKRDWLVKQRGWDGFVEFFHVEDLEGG
Assay: MCL-1/Bim Binding AlphaLISA Assay
Details: 0.0625 nM 6xHis-Mcl-1 (171-327), 0.0625 nM biotinylated-Bim peptide
Scale: pIC50 equals -log10([C]), with [C] in mol/L.

The following molecules have reported results that may help.
CO[C@H]1/C=C/C[C@H](C)C[S@@](=O)(NC(=O)N[C@@H]2C[C@@H]2OC)=NC(=O)c2ccc3c(c2)N(C[C@@H]2CC[C@H]21)C[C@@]1(CCCc2cc(Cl)ccc21)CO3 :: 10.18
COC1CCN(C(=O)N[S@@]2(=O)=NC(=O)c3ccc4c(c3)N(C[C@@H]3CC[C@H]3[C@@H](OC)/C=C/C[C@H](C)C2)C[C@@]2(CCCc3cc(Cl)ccc32)CO4)CC1 :: 10.46
COC(=O)N[C@H](C(=O)N1CCN(C(=O)N[S@@]2(=O)=NC(=O)c3ccc4c(c3)N(C[C@@H]3CC[C@H]3[C@@H](OC)/C=C/C[C@H](C)C2)C[C@@]2(CCCc3cc(Cl)ccc32)CO4)C[C@@H]1C)C(C)C :: 9.88
CO[C@H]1/C=C/C[C@H](C)C[S@@](=O)(NC(=O)N[C@@H]2CCOC2)=NC(=O)c2ccc3c(c2)N(C[C@@H]2CC[C@H]21)C[C@@]1(CCCc2cc(Cl)ccc21)CO3 :: 10.22

Prompt: pIC50 lookup needed for `CO[C@H]1/C=C/CCC[S@@](=O)(NC(=O)COc2ccccc2)=NC(=O)c2ccc3c(c2)N(C[C@@H]2CC[C@H]21)C[C@@]1(CCCc2cc(Cl)ccc21)CO3` , thanks.
Response: 9.40
